assay: Pharmacokinetics after oral administration of 20 mg/kg to CON and PHL rats; format: in vivo, Sprague–Dawley rats; settings: Sprague-Dawley, rat, plasma, po, 20 mg/kg, PHL rats (n = 7), read-out: CLR (time-averaged renal clearance)
METRIC NAME: CL renal (mL/min/kg)
Give the value, in units of mL/min/kg, as a plain number.

Input line: Record request: CL renal value, item C[C@@H]1CCN(C(=O)CC#N)C[C@@H]1N(C)c1ncnc2[nH]ccc12
Output line: 1.28

###

test: Pharmacokinetics after oral administration of 20 mg/kg to CON and PHL rats; type: in vivo, Sprague–Dawley rats; conditions: Sprague-Dawley, rat, plasma, po, 20 mg/kg, CON rats (n = 6), read-out: CLR (time-averaged renal clearance)
METRIC NAME: CL renal (mL/min/kg)
Give the value, in units of mL/min/kg, as a plain number.

Input line: Record request: CL renal value, item C[C@@H]1CCN(C(=O)CC#N)C[C@@H]1N(C)c1ncnc2[nH]ccc12
Output line: 3.52

###

experiment: in vivo; conditions: Sprague-Dawley, rat, plasma, iv, 10 mg/kg, CLR (time-averaged renal clearance), PHL rats (n = 6)
METRIC NAME: CL renal (mL/min/kg)
Give the value, in units of mL/min/kg, as a plain number.

Input line: Record request: CL renal value, item C[C@@H]1CCN(C(=O)CC#N)C[C@@H]1N(C)c1ncnc2[nH]ccc12 [tofacitinib, Tofacitinib]
Output line: 2.47

###

Assay: Distribution of tofacitinib in tissues 30 min after intravenous administration
Format: in vivo
Details: Sprague-Dawley, rat; all tissues of CON and PHL rats, 30 min after intravenous 10 mg/kg; read-out: Tissue-to-plasma (T/P) ratios
Procedure: . Tissue samples, including fat, brain, kidney, heart, liver, large intestine, mesentery, lung, small intestine, muscle, stomach, and spleen, were removed from each rat, rinsed in phosphate-buffered saline (PBS, pH 7.4), and blotted dry with paper towels to remove any remaining blood. Approximately 1 g of each tissue was added to 4 volumes of homogenizing buffer, followed by homogenization (IKA Labortechnik, Staufen, Germany) and centrifugation at 8000× g for 10 min.
METRIC NAME: Kp at 30 min

Input line: Record request: Kp at 30 min value, item C[C@@H]1CCN(C(=O)CC#N)C[C@@H]1N(C)c1ncnc2[nH]ccc12 [tofacitinib, Tofacitinib]
Output line: < 1

###

assay: Pharmacokinetics after oral administration of 20 mg/kg to CON and PHL rats; type: in vivo, Sprague–Dawley rats; details: Sprague-Dawley, rat, plasma, po, 20 mg/kg, PHL rats (n = 7)
METRIC NAME: Cmax (ng/mL)
Give the value, in units of ng/mL, as a plain number.

Input line: Record request: Cmax value, item C[C@@H]1CCN(C(=O)CC#N)C[C@@H]1N(C)c1ncnc2[nH]ccc12
Output line: 4750

###

experiment: Pharmacokinetics after oral administration of 20 mg/kg to CON and PHL rats; type: in vivo, Sprague–Dawley rats; details: Sprague-Dawley, rat, plasma, po, 20 mg/kg, CON rats (n = 6), read-out: k (elimination rate constant) (converted)
METRIC NAME: k el (s⁻¹)
Give the value, in units of s⁻¹, as a plain number.

Input line: Record request: k el value, item C[C@@H]1CCN(C(=O)CC#N)C[C@@H]1N(C)c1ncnc2[nH]ccc12 [tofacitinib, Tofacitinib]
Output line: 0.000197
